Please provide measured melting point for the entries that follow.

Need melting point, item O=C1Nc2ccccc2SC1CCBr (stereo not given)
151 to 152 °C

Need melting point, item COc1c(C)c(C)c(OC)c(C(O)(c2cccnc2)C2CCCC2)c1C (stereo not given)
126 to 127 °C

Need melting point, item Oc1cccnc1C=NNc1ccc(F)cc1
223 to 225 °C

Need melting point, item CN1CCCC(O)(c2cccc3[nH]ccc23)C1 (stereo not given)
250 °C

Need melting point, item CCOC(=O)C(=O)Nc1nc2c(OC)ccc(-c3ccccc3)c2s1
138 to 142 °C

Need melting point, item CCn1c(=O)n(OCc2ccccc2)c(=O)c2cc(F)c(N3CCN(C)CC3)nc21
178 to 179 °C

Need melting point, item Cc1nc2cc(C(=O)O)c(C(=O)O)cc2n1C
308 to 312 °C

Need melting point, item CCNC(=O)c1ccc(N2CCN(Cc3cc4c(c(OC)c3)OC(C)C(=O)N4)CC2)c(F)c1 (stereo not given)
228 to 229 °C

Need melting point, item N#Cc1c(N2CCN(C(=O)c3cccs3)CC2)c2cccnc2n(CC(=O)c2ccccc2)c1=O
269 °C

Need melting point, item CCCOc1ccccc1-c1nccc(=O)[nH]1
112 to 113 °C

Need melting point, item CS(=O)(=O)CS(C)(=O)=O
146 °C

Need melting point, item CCCC1CCN(CCCCC(=O)c2cc(Cl)c(N)cc2OCc2cc(OC)cc(OC)c2)CC1
119 to 120 °C

Need melting point, item COC1CCC2C3CCC4CC(O)CCC4(C)C3CCC12C (stereo not given)
150 to 152 °C

Need melting point, item O=C1NCC1NC(=O)C(C(=O)OCc1ccccc1)c1ccccc1 (stereo not given)
164 to 166 °C

Need melting point, item COc1cc(OCc2ccncc2)ccc1/C=C/c1cc(/C=C/c2ccc3cc[nH]c3c2)n[nH]1
103 to 118 °C

Need melting point, item Cc1c2c(c(C=O)c(C(C)C)c1OCc1ccccc1)OC(C)(C)C2
107 to 108 °C

Need melting point, item Fc1ccc(Cn2cnc3ccccc32)cc1
60 to 62 °C

Need melting point, item O=C(O)CCc1cc2nc(Cl)ccc2n1S(=O)(=O)c1cccc2ccccc12
93 °C

Need melting point, item Cc1cc(NC(=O)C(C)(O)COc2cc(Cl)cc(Cl)c2)ccc1[N+](=O)[O-] (stereo not given)
141 to 143 °C

Need melting point, item NC(=O)c1nc(-c2ccc(Cl)cc2Cl)c(-c2ccc(Cl)cc2)s1
195 to 198 °C

Need melting point, item CCOc1ccn([C@H]2CS[C@@H](CO)O2)c(=O)n1 (relative stereo)
117 to 118 °C

Need melting point, item CON1C(C)(C)CC(OC(=O)N=NC(=O)OC2CC(C)(C)N(OC)C(C)(C)C2)CC1(C)C
145 to 147 °C

Need melting point, item O=C1c2ccccc2C(=O)N1CCCN1c2ccccc2C(c2ccccc2)=Nc2cccnc21
170 to 172 °C

Need melting point, item CCOC(=O)C(C)=C(C)NC(=O)Nc1cc(C(=O)OC(C)C)c(Cl)cc1F
145 to 147 °C

Need melting point, item Cc1nnc2ccc(-c3ccccc3F)nn12
147 to 149 °C

Need melting point, item CCOC(=O)C(=O)N(O)Cc1ccc2c(c1)Cc1ccccc1-2
130 to 131 °C

Need melting point, item O=C1CCC(N2Cc3c(OCc4ccc(CN5CCN(C(=O)CCCCC6SCC7NC(=O)NC76)CC5)cc4)cccc3C2=O)C(=O)N1 (stereo not given)
168 to 170 °C

Need melting point, item CCOC(=O)C1=C(C)NC(c2c(F)cccc2F)=NC1c1ccc(F)cc1Cl (stereo not given)
163 to 165 °C

Need melting point, item CC(C(=O)O)c1ccc2c(c1)Cc1cccnc1O2 (stereo not given)
183 to 184 °C

Need melting point, item COC(=O)C1=C(C)NC(C)=C(C(=O)OCC2CCCO2)C1c1cccc(F)c1 (stereo not given)
66 to 68 °C

Need melting point, item COc1ccc([N+](=O)[O-])c(CS(=O)(=O)c2ccccc2)n1
147 to 149 °C

Need melting point, item O=C1c2cc(F)ccc2S(=O)(=O)c2cc(C3=NCCN3)ccc21
248 to 249 °C

Need melting point, item NCC1CCN(CC(=O)Nc2cccc3c2C(=O)c2c-3n[nH]c2-c2ccc(N3CCNCC3)cc2)CC1
239 °C

Need melting point, item COc1ccc(C(=O)O)cc1OC(=O)c1ccccc1
180 to 183 °C

Need melting point, item CCCc1c(C#N)ccc(NC(=NC#N)Nc2cccc(Cl)c2Cl)c1O
143 to 147 °C

Need melting point, item COc1ccccc1Oc1c(Cl)nc(N2CCOCC2)nc1NS(=O)(=O)c1ccc(C(C)C)cn1
168 to 176 °C

Need melting point, item COc1ccc(OC(C)(C)C(=O)O)cc1OCCCc1cn(-c2ccc(C(F)(F)F)cn2)nc1C(C)C
106 to 107 °C

Need melting point, item c1ccc(-n2c3ccccc3c3c2ccc2c4ccccc4n(-c4ccccc4)c23)cc1
166 °C

Need melting point, item CC1=C(C#N)S(=O)(=O)c2cc(Cl)ccc2N1
297 to 299 °C

Need melting point, item Cc1nc(N)nc(N)c1C12CC3CC(CC(C3)C1)C2
254 to 258 °C
